Target: AURKA (Homo sapiens, UniProt O14965)
Construct: endogenous in cells; host or cells: Jurkat cells
Type: cell-based
Details: 100 nM compound, Jurkat cells, 24 h, Table 1
Description: WB is a classical biochemical experimental method used to detect the abundance of a target protein in a sample of cells or biological tissue. It relies on specific antigen-antibody binding to detect protein signals from the sample processed by gel electrophoresis: the protein specifically binds to a primary antibody at an epitope; the primary antibody is then conjugated with a secondary antibody to amplify the signal cascade; the signal is read out by chemiluminescent or fluorescent detection. […]
QUANTITY: Percentage of AURKA Degradation Induced by 100 nM Compound in Jurkat Cells

# example entries with known answers
1. COc1cc(Nc2ncc3c(n2)-c2ccc(Cl)cc2C(c2c(F)cccc2OC)=NC3)ccc1C(=O)N1CC2(CCN(c3ccc(N4CCC(=O)NC4=O)cc3)CC2)C1	+ (Degradation ≤ 30%)
2. O=C1CCN(c2ccc(N3CCC(CNC(=O)c4ccc(Nc5ncc6c(n5)-c5ccc(Cl)cc5C(c5c(F)cccc5F)=NC6)cc4)CC3)cc2)C(=O)N1	+ (Degradation ≤ 30%)
3. COc1cccc(F)c1C1=NCc2cnc(Nc3ccc(C(=O)NCCN4CCN(c5ccc(N6CCC(=O)NC6=O)cn5)C(=O)C4)cc3)nc2-c2ccc(Cl)cc21	+++ (Degradation > 70%)
4. COc1cc(Nc2ncc3c(n2)-c2ccc(Cl)cc2C(c2c(F)cccc2OC)=NC3)ccc1C(=O)NCCN1CCN(c2ccc(N3CCC(=O)NC3=O)cn2)CC1	+++ (Degradation > 70%)

// switching to the query compound
Query: State the measured Percentage of AURKA Degradation Induced by 100 nM Compound in Jurkat Cells (AURKA (Homo sapiens, UniProt O14965)) of `COc1cc(Nc2ncc3c(n2)-c2ccc(Cl)cc2C(c2c(F)cccc2OC)=NC3)ccc1C(=O)NCCN1CCN(c2cccn3c(N4CCC(=O)NC4=O)cnc23)CC1`
Reply: +++ (Degradation > 70%)

====

Target: AURKA (Homo sapiens, UniProt O14965)
Construct: endogenous in cells; host or cells: Jurkat cells
Sequence (O14965 1-403): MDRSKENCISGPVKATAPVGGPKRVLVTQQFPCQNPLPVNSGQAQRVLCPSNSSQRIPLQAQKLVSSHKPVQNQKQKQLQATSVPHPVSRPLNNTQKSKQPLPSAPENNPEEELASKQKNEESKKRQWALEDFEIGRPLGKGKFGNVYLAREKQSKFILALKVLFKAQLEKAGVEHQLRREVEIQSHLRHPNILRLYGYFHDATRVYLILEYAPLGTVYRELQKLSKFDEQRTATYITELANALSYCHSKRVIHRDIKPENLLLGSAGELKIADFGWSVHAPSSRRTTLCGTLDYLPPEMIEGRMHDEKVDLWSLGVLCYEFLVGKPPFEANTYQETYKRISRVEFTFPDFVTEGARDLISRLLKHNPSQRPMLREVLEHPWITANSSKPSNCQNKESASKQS
Format: cell-based
Conditions: 100 nM compound, Jurkat cells, 24 h, Table 1
QUANTITY: Percentage of AURKA Degradation Induced by 100 nM Compound in Jurkat Cells

1) O=C1CCN(c2ccc(N3CC(CN4CC(NC(=O)c5ccc(Nc6ncc7c(n6)-c6ccc(Cl)cc6C(c6c(F)cccc6F)=NC7)cc5)C4)C3)cc2)C(=O)N1 [Compound A70]	+++ (Degradation > 70%)
2) O=C1CCN(c2ccc(N3CCC4(CC3)CC(NC(=O)c3ccc(Nc5ncc6c(n5)-c5ccc(Cl)cc5C(c5c(F)cccc5F)=NC6)cc3)C4)nc2)C(=O)N1 [Compound A55]	+++ (Degradation > 70%)
3) O=C1CCN(c2ccc(N3CC4(CC(NC(=O)c5ccc(Nc6ncc7c(n6)-c6ccc(Cl)cc6C(c6c(F)cccc6F)=NC7)cc5)C4)C3)nc2)C(=O)N1 [Compound A60]	+++ (Degradation > 70%)

Data provenance: patent EP4818168A1
